Origin of values: ChEMBL document CHEMBL1201862

assay.summary: Luminescence Cell-Based Dose Response HTS to Identify Activators of Luciferase Translation or Activity in H4 […] Cells. [Related pubchem assays: 1829 (Project Summary), 1814 (Primary HTS)]
Assay type: functional
Activity calls are given as the source filed them.
Please respond with reported EC50 for every item in the list.

Cn1c2ccccc2c2cc(C(=O)N3CCN(CCO)CC3)sc21; 15.3 µM (active)
CN1CCN(C(=S)c2ccc(-c3cccc([N+](=O)[O-])c3)o2)CC1; 0.117 µM (active)
c1ccc(CNc2ncnc3c2ncn3C2CCCCO2)cc1 (stereo not given); 4.67 µM (active)

Please look at the items below and tell me EC50 for each one, in order.
1. COc1cccc(/C=N/NC(=O)c2[nH]nc3c2CCc2ccccc2-3)c1
2. O=C(CCl)N1CCCC1c1ccc2c(c1)OCCO2 (stereo not given)

> 60 µM (not active)
14 µM (active)

----------
study.system: Glucose-6-phosphate 1-dehydrogenase (Homo sapiens, UniProt P11413)
Sequence (P11413 whole entry): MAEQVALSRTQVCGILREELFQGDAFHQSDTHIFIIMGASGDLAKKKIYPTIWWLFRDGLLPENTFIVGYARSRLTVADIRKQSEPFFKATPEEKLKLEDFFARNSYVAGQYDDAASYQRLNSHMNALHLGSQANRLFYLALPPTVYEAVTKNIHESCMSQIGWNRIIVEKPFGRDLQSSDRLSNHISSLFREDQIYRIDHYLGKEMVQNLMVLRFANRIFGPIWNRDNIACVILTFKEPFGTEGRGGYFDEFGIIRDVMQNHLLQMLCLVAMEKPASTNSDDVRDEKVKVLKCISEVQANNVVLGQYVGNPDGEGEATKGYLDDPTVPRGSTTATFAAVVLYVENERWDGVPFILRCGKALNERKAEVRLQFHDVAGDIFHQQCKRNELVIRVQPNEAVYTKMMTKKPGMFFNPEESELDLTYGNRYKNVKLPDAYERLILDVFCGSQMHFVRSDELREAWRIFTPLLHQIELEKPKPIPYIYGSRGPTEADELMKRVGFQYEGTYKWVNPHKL
assay.summary: inhibition of Homo sapiens G6PD, dose series – biochemical, fluorescence, selectivity assay for P. falciparum G6PD inhibitor project, dose response (AID 504792)
Type: functional
Calls of active or inactive are those of the source.
value.kind: IC50

COC1=C(N)C(=O)c2nc(C)ccc2C1=O; 59.6 µM (inactive)
COc1cc(C(=O)O/N=C2\C=CC(=O)C=C2C)cc(OC)c1OC; > 80 µM (inactive)
NCCc1cc(O)c(O)cc1O; > 80 µM (inactive)

Now consider the entry below.
Please look up its IC50: C[C@H](NC(=O)c1cc2c3ccccc3nc-2c[nH]1)C(=O)O
> 80 µM (inactive)

----------
study.system: Nuclear receptor subfamily 5 group A member 2 (Homo sapiens);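 further: HEK293T cells transfected with LRH-1 and a StAR promoter luciferase reporter; potency for inhibitors that lower LRH-1 driven reporter light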
Sequence (O00482 whole entry): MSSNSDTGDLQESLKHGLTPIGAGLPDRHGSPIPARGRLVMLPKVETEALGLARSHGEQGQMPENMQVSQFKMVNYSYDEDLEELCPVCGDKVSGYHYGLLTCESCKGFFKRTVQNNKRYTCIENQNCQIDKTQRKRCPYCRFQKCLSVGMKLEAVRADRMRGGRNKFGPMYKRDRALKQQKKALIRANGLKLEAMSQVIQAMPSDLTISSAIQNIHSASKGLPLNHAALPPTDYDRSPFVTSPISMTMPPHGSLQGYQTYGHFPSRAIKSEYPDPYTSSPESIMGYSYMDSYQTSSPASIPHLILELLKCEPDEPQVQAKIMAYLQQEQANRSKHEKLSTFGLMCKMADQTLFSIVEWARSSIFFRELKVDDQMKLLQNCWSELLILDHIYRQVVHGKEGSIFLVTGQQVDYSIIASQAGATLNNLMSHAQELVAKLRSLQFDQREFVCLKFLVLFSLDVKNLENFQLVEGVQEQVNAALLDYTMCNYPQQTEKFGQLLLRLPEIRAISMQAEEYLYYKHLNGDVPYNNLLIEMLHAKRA
Type: functional, cell-based
Activity calls are given as the source filed them.
The categories you may choose from are active, inactive

Observe how each entry below is paired with its result.
COc1ccc(NC(=O)CSc2nc(N)c(-c3ccccc3)c(O)n2)cc1; active
CC(=O)Nc1ccc(NC(=O)CSc2ccc(-c3ccc(-n4ccnc4)cc3)nn2)cc1; inactive
Cc1ccc(C)c(NC(=O)CSc2nc(O)c3c[nH]nc3n2)c1; inactive

Hello, I am checking results. What call was entered for CC(=O)Nc1ccc(NC(=O)CSc2nnc(NC(=O)C3CC3)s2)cc1 ?
active

----------
Give IC50 for every item shown.
study.system: DNA dC->dU-editing enzyme APOBEC-3A (Homo sapiens)
Sequence (P31941 whole entry): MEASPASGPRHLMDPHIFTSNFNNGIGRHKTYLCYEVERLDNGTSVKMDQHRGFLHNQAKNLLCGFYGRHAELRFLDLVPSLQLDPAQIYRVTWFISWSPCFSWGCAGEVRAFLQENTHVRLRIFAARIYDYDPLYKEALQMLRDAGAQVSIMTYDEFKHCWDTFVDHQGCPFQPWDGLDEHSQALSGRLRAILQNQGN
assay.summary: SAR analysis of small molecule inhibitors of APOBEC3A DNA Deaminase via a fluorescence-based single-stranded DNA deaminase assay.
Type: functional
applied.conditions: read-out: IC50_Mean
Calls of active or inactive are those of the source.

CCCCN1CCc2cc(/C=C3\C(=O)NC(=S)N(C4CC4)C3=O)ccc21; 57.1 µM (inactive)
C[n+]1cccc(C(=O)Nc2ccccc2)c1; 12.8 µM (inactive)
Cc1ccc(CN(C)C(=O)CSc2nnc(-c3ccc(F)cc3)n2C)o1; > 99 µM (inactive)

Could you now consider this next compound?
Which IC50 is listed for COc1ccc(-c2nnc(SCC(=O)N(C)Cc3cccs3)[nH]2)cc1 ?
> 99 µM (inactive)

----------
Test system: Streptococcus sp. 'group A'
assay.summary: Streptococcus pyogenes SK(-)GAS viability under kanamycin – luminescence, BacTiterGlo, confirmation, counter-screen for streptokinase expression inhibitor project, dose response (AID 1900)
Type: functional, organism-based
The source made the active and inactive calls.
Would you kindly list EC50 for each of these molecules?

The examples below pair each entry with its known result.
Cc1ccccc1OCC(=O)NC(=S)Nc1ccc(Br)c(C)n1; > 150 µM (not active)
COc1ccc(NS(=O)(=O)c2cccc(NC(=O)CCC(=O)c3ccc(Cl)cc3)c2)cc1; 11.2 µM (active)

Quick batch: EC50 for everything below.
1. Sc1nnc(-c2cc(-c3ccccc3)[nH]n2)n1/N=C/c1ccc(Br)s1
2. CC1(C)CC[C@]2(C(=O)O)CC[C@]3(C)C(=CCC4[C@@]5(C)CC[C@H](O)C(C)(C)C5CC[C@]43C)C2C1 (stereo not given in full)
3. Cc1cccc(CSc2nc(N)c(C#N)c(-c3cccs3)c2C#N)c1

14.6 µM (active)
2.6 µM (active)
5.04 µM (active)
